Assay: Stability in human plasma/PBS 1:2 v/v
Type: in vitro ADME
Conditions: human blood plasma/PBS 1:2 v/v, pH 7.4, 37 °C, 48 h, read-out: % intact compound in plasma
measured-parameter: remaining at 48 h, 80 μM (%)
Numbers only, in %.

>>> observed_result("CCC(=O)NCCCCNC(=O)NC(=N)NCCC[C@H](NC(=O)[C@@H]1CCCN1C(=O)[C@@H](NC(=O)CCc1cn(CCCNC(=O)CCC#Cc2ccc3c(c2)C(C)(C)C2=C4C=C5C6=[N+](CCC5OC4CCN23)c2ccc(S(=O)(=O)[O-])cc2C6(C)C)nn1)C1CCNCC1)C(=O)N[C@@H](CCCNC(=N)N)C(=O)N1CCC[C@H]1C(=O)N[C@H](C(=O)N[C@H](C(=O)N[C@@H](CC(C)C)C(=O)O)[C@@H](C)CC)C(C)(C)c1ccc(O)cc1 (some centres unmarked)")
52

Param item = CCC(=O)NCCCCNC(=O)N=C(N)NCCC[C@H](NC(=O)[C@@H]1CCCN1C(=O)[C@@H](NC(=O)CCc1cn(CCCNC(=O)c2ccc(-c3c4ccc(=[N+](C)C)cc-4oc4cc(N(C)C)ccc34)c(C(=O)[O-])c2)nn1)C1CCNCC1)C(=O)N[C@@H](CCCNC(=N)N)C(=O)N1CCC[C@H]1C(=O)N[C@@H](Cc1ccc(O)cc1)C(=O)N[C@H](C(=O)N[C@@H](CC(C)C)C(=O)O)[C@@H](C)CC ; retrieve measured remaining at 48 h, 80 μM.
58
